# methodNotes: molar heat capacity at constant pressure
# testSettings: 7 K; 101.33 kPa; Crystal; relaxation calorimetry
metricName: molar heat capacity at constant pressure (J/K/mol)
Field format: number, assumed J/K/mol, no unit text.

Return reported molar heat capacity at constant pressure. Input molecule: OC[C@@H](O)[C@H](O)[C@@H](O)CO
0.3152

Note molar heat capacity at constant pressure for the molecule shown: OC[C@@H](O)[C@@H](O)CO
0.2944

Tell me molar heat capacity at constant pressure reported for OC[C@H](O)C(O)[C@@H](O)CO [L-(-)-arabitol]
0.26

Tell me its molar heat capacity at constant pressure given OC[C@@H](O)C(O)[C@H](O)CO as the entry.
0.2508

Please give measured molar heat capacity at constant pressure of the following entry: O[C@H]1[C@H](O)[C@@H](O)[C@H](O)[C@@H](O)[C@H]1O [cis-1,2,3,5-trans-4,6-cyclohexanehexol]
0.5031

For OC[C@@H](O)[C@@H](O)[C@H](O)[C@H](O)CO , write its molar heat capacity at constant pressure.
0.3376

====

# methodNotes: molar heat capacity at constant pressure
# testSettings: 294.15 K; 101.33 kPa; Crystal; Small sample (50 mg) DSC
For each of the molecules below, state its molar heat capacity at constant pressure.
Output spec: scalar in J/K/mol, unitless text.

Indicate the recorded molar heat capacity at constant pressure value for this molecule: OC[C@@H](O)[C@@H](O)[C@H](O)[C@H](O)CO [D-mannitol]
226.79

Provide one value: measured molar heat capacity at constant pressure of OC[C@@H](O)C(O)[C@H](O)CO [D-arabitol]
198.27

Fill in molar heat capacity at constant pressure for record OC[C@H](O)C(O)[C@@H](O)CO [L-(-)-arabitol]
203.94

Report measured molar heat capacity at constant pressure; entry is O[C@H]1[C@H](O)[C@@H](O)[C@H](O)[C@@H](O)[C@H]1O [cis-1,2,3,5-trans-4,6-cyclohexanehexol]
214.44

Retrieve molar heat capacity at constant pressure measured for OC[C@@H](O)[C@H](O)[C@@H](O)CO [xylitol] and print it.
206.39

Quote molar heat capacity at constant pressure reported for OC[C@@H](O)[C@@H](O)CO [meso-1,2,3,4-butanetetrol] please.
162.21

====

# methodNotes: molar heat capacity at constant pressure
# testSettings: 330.15 K; 101.33 kPa; Crystal; Small sample (50 mg) DSC
metricName: molar heat capacity at constant pressure (J/K/mol)
The reply should contain only the number, in J/K/mol.

Determine its reported molar heat capacity at constant pressure: OC[C@@H](O)[C@@H](O)[C@H](O)[C@H](O)CO
259.36

Give molar heat capacity at constant pressure for the following compound: OC[C@@H](O)[C@H](O)[C@@H](O)CO
236.5

Give me measured molar heat capacity at constant pressure, please, for this compound: OC[C@@H](O)[C@@H](O)CO
184.59

Identify the reported molar heat capacity at constant pressure for the following entry. O[C@H]1[C@H](O)[C@@H](O)[C@H](O)[C@@H](O)[C@H]1O [cis-1,2,3,5-trans-4,6-cyclohexanehexol]
246.24

Write down molar heat capacity at constant pressure measured for item OC[C@H](O)C(O)[C@@H](O)CO [L-(-)-arabitol]
237.74

Tell us which molar heat capacity at constant pressure value is on record for OC[C@@H](O)C(O)[C@H](O)CO
229.69
